biological target: large-conductance calcium-activated potassium (maxi-K) channels from bovine aortic smooth muscle (Bos taurus); construct: membrane patches excised from cultured bovine aortic smooth muscle cells; endogenous in cells; host or cells: cultured bovine aortic smooth muscle cells; experiment: Patch clamp recordings of maxi-K channel currents in excised inside-out membrane patches; assay type: biochemical; details: excised inside-out patches, compound added to bath; read-out: [50% CHANNEL BLOCK]
Sequence (Q28204 whole entry): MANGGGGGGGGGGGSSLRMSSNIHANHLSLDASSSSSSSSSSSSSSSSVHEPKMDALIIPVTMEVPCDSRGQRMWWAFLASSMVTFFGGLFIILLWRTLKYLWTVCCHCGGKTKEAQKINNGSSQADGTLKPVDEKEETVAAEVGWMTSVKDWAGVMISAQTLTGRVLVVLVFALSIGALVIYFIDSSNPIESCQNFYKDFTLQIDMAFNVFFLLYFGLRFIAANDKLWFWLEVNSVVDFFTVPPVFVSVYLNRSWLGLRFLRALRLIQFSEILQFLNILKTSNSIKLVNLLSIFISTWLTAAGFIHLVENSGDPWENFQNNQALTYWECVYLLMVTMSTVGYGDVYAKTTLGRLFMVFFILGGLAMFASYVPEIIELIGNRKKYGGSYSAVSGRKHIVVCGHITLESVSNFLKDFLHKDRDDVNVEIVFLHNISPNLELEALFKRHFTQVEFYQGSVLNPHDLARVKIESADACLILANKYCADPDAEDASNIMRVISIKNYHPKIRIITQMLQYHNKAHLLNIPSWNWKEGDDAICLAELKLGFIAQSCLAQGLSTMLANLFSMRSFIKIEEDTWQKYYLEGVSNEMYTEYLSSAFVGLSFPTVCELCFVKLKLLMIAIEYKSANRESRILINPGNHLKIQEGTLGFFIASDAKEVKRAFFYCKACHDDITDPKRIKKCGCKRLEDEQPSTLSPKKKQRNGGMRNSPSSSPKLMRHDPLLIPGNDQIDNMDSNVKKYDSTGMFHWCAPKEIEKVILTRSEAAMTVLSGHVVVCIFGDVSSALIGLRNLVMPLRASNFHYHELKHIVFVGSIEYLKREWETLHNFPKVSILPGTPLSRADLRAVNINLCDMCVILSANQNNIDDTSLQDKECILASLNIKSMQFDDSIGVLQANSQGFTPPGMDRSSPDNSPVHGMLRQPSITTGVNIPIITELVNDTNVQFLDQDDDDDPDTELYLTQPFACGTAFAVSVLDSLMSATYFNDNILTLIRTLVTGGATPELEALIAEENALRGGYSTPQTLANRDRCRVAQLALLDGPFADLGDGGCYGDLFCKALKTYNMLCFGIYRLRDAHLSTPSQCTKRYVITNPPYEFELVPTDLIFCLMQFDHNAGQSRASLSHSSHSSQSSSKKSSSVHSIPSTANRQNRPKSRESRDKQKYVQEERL
Sequence (Q28067 whole entry partner): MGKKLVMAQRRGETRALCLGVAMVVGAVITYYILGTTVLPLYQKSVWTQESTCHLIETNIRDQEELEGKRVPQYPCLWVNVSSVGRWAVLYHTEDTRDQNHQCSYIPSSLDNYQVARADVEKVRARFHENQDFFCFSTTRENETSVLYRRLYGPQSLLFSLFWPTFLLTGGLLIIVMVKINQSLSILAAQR
pIC50: −log10 of the molar value.
readout: pIC50

Can you look up the measured pIC50 of CC1(C)ON=C2C=C3[C@H](CC[C@@]4(C)[C@@]3(O)CC[C@H]3Cc5c([nH]c6ccccc56)[C@@]34C)O[C@@H]21 [Compound F, Paxizoline] for me?
~8.00
